tested on: HIPK2; details: Compound Concentration (nM):1000;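 note: KINOMEscan scanMAX binding as percent activity remaining versus control; lower means stronger binding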
# cutoff 90% applies to Percent Control; >= gives rule met, < gives rule not met

compound	category.label
COc1cc(/C=N/Nc2ncnc3[nH]ncc23)ccc1O [GW578748X]	rule not met
COc1cc(C)c(N(C)C(=O)CN(C)C)cc1Nc1nc(Nc2cccc(F)c2C(N)=O)c2cc[nH]c2n1 [GSK2219385]	rule met
Cl.O=S1CCN(Cc2ccc(-c3ccc4ncnc(Nc5ccc(OCc6ccccc6)c(F)c5)c4c3)o2)CC1 [GW576924A]	rule met
Cl.c1ccc(Cc2nc3ccc(Nc4ncnc5ccccc45)cc3[nH]2)cc1 [GR269666A]	rule met
NS(=O)(=O)c1ccc(N/N=C2\C(=O)Nc3ccc(C(=O)NCc4ccncc4)cc32)cc1 [GW300657X]	rule not met
COc1cccc(-c2c[nH]c3c(N/N=C/c4ccncc4)ncnc23)c1 [GW814408X]	rule not met
Cl.O=C(Nc1ccc(Oc2ccc3[nH]c(NC(=O)c4ccco4)nc3c2)cc1)Nc1cc(C(F)(F)F)ccc1F [GW683134A]	rule met
COc1cc2ncn(-c3cc(O[C@H](C)c4ccccc4Cl)c(C(N)=O)s3)c2cc1OC [GSK237701A]	rule not met
NS(=O)(=O)c1ccc(Nc2ncc(-c3ccccc3)o2)cc1 [GW572399X]	rule not met
COc1ccc(COc2ccc(Cc3cnc(N)nc3N)cc2OC)cc1 [GW632580X]	rule met
O=C1Nc2ccc(C(=O)c3ccco3)cc2C1=Cc1cc(Cl)c(O)c(Cl)c1 [GW406108X]	rule not met
Cl.O=C(Nc1ccc(Oc2ccc3[nH]c(NC(=O)c4ccccc4)nc3c2)cc1)Nc1cc(C(F)(F)F)ccc1F [GW709042A]	rule met
O=C(Nc1n[nH]c2nc(-c3ccc(O)cc3)c(Br)cc12)C1CC1 [SB-725317]	rule not met
COc1ccc2cc(-c3c(-c4ccncc4)nc(-c4ccc(S(C)(=O)=O)cc4C)n3C)ccc2c1 [SB-633825]	rule not met
COc1ccccc1-c1cc(/C=C2\C(=O)Nc3ncc(Br)cc32)cc(Br)c1O [GW442130X]	rule met
